- System: ACHN
- ASSAY NOTES: AUC of dose-response viability curve, drug alone (arbitrary (AUC of normalised viability)); higher = less growth inhibition
- STUDY CONDITIONS: treatment: drug alone; 5 days
MEASURED ENDPOINT: AUC of dose-response viability curve
Reply briefly: the number, and no unit.

                                   compound  target  observed
0      COc1cc2ncnc(Nc3cccc(Br)c3)c2cc1OC.Cl    ACHN      2.07
1  CN1CCN(C2CCN(C(=O)Nc3cc(Oc4ccc(NC(=O)C5(C(=O)Nc6ccc(F)cc6)CC5)c(F)c4)ccn3)CC2)CC1 [Golvatinib (E7050)]    ACHN      2.67
2  COc1ccc(S(=O)(=O)N(C(C)=O)c2ccccc2/C=C/c2cc[n+]([O-])cc2)cc1 [HMN-214]    ACHN      2.14
3  CN(C)C/C=C/C(=O)Nc1cc2c(Nc3ccc(F)c(Cl)c3)ncnc2cc1O[C@H]1CCOC1 [Afatinib (BIBW2992)]    ACHN      1.71
4  CCN(CCO)CCCOc1ccc2c(Nc3cc(CC(=O)Nc4cccc(F)c4)n[nH]3)ncnc2c1 [Barasertib (AZD1152-HQPA)]    ACHN      2.71

Lookup: Quick one: give measured AUC of dose-response viability curve for Nc1ncnc2c1c(-c1cccc(OCc3ccccc3)c1)cn2[C@H]1C[C@H](CN2CCCC2)C1 [NVP-ADW742]
Found: 2.38

Lookup: Name the recorded AUC of dose-response viability curve of the compound listed here: Cc1csc(-c2nnc(Nc3ccc(Oc4ncccc4-c4ccnc(N)n4)cc3)c3ccccc23)c1 [AMG 900]
Found: 1.72

Each recorded value in this set is attributed to the supplement of paper PMC8149375.
